test: recombinant UMI read abundance after kanamycin selection (control-corrected) (log10(CPM+1)); higher = more efficient recombination; extreme values may be limits of the assay; sequences stand for … in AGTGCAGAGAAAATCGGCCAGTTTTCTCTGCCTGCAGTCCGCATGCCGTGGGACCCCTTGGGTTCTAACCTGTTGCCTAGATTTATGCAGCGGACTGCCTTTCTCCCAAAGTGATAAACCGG…AGGTTGGTTTCACT; site = the 11-nt donor
quantityName: recombinant UMI read abundance (log10)
// keep it numeric: no unit symbol after the value

>  <orderedResidues>
TCATAATCATGGACCGGTTTTCCCGGTAATCCGTATTTGCA (site TCATATTCTTG)

>  <recombinant UMI read abundance (log10)>
0.925

$$$$

Given the sequence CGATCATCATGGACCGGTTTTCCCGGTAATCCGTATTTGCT (site CGATCAACTAC) , write its reported recombinant UMI read abundance (log10).
0.0107

Given the sequence AAACGTCCATGGACCGGTTTTCCCGGTAATCCGTATTTGAT (site AACCGTCCTAT) , write its reported recombinant UMI read abundance (log10).
0.00727

Given the sequence AGAACGGCATGGACCGGTTTTCCCGGTAATCCGTATTTGCG (site AGAACGGCTCG) , write its reported recombinant UMI read abundance (log10).
1.75

* * *

test: recombinant UMI read abundance after kanamycin selection (control-corrected) (log10(CPM+1)); higher = more efficient recombination; extreme values may be limits of the assay; sequences stand for … in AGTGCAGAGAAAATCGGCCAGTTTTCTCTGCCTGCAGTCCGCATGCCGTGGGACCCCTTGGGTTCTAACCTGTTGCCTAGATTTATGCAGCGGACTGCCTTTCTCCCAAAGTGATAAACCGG…AGGTTGGTTTCACT; site = the 11-nt donor
Listed next: entries and their corresponding recombinant UMI read abundance (log10).
// keep it numeric: no unit symbol after the value

>  <orderedResidues>
AGAAGGCCATGGACCGGTTTTCCCGGTAATCCGTATTTGAC (site ACAAGGCCTGT)

>  <quantityName>
recombinant UMI read abundance (log10)

>  <number>
0

$$$$
>  <orderedResidues>
TAGCTTTCATGGACCGGTTTTCCCGGTAATCCGTATTTGGT (site TAGCCTTCTAC)

>  <quantityName>
recombinant UMI read abundance (log10)

>  <number>
0.157

$$$$
>  <orderedResidues>
AGCACGACATGGACCGGTTTTCCCGGTAATCCGTATTTGCA (site AGGAAGACTTG)

>  <quantityName>
recombinant UMI read abundance (log10)

>  <number>
0

$$$$
>  <orderedResidues>
CGGAACACATGGACCGGTTTTCCCGGTAATCCGTATTTGCA (site CGGAACACTTG)

>  <quantityName>
recombinant UMI read abundance (log10)

>  <number>
2.5

$$$$
>  <orderedResidues>
GATTATCCATGGACCGGTTTTCCCGGTAATCCGTATTTGGT (site GATTATCCTAC)

>  <quantityName>
recombinant UMI read abundance (log10)

>  <number>
0.0163

$$$$
>  <orderedResidues>
TGTAGAACATGGACCGGTTTTCCCGGTAATCCGTATTTGCC (site TGTAGAACTGG)

>  <quantityName>
recombinant UMI read abundance (log10)

>  <number>
0.754

$$$$
>  <orderedResidues>
GTGCGTACATGGACCGGTTTTCCCGGTAATCCGTATTTGCT (site GTGCGTACTAG)

>  <quantityName>
recombinant UMI read abundance (log10)

>  <number>
2.23

$$$$
>  <orderedResidues>
AATTGGGCATGGACCGGTTTTCCCGGTAATCCGTATTTGAA (site AATTGGGCTTT)

>  <quantityName>
recombinant UMI read abundance (log10)

>  <number>
0.399

$$$$

Next, consider the following sequence.
Given the sequence CGGGAATCATGGACCGGTTTTCCCGGTAATCCGTATTTGAT (site CGGGAAGCTAT) , write its reported recombinant UMI read abundance (log10).
0.284

* * *

Listed next: entries and their corresponding recombinant UMI read abundance (log10).
test: recombinant UMI read abundance after kanamycin selection (control-corrected) (log10(CPM+1)); higher = more efficient recombination; extreme values may be limits of the assay; sequences stand for … in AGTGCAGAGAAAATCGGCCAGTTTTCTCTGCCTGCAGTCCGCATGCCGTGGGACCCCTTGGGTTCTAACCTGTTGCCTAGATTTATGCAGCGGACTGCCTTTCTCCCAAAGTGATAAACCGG…AGGTTGGTTTCACT; site = the 11-nt donor
// keep it numeric: no unit symbol after the value

>  <orderedResidues>
AACCTAGCATGGACCGGTTTTCCCGGTAATCCGTATTTGTT (site ACCCTAGCTAA)

>  <recombinant UMI read abundance (log10)>
0.542

$$$$
>  <orderedResidues>
AAACGAACATGGACCGGTTTTCCCGGTAATCCGTATTTGTC (site AGACGAACTGA)

>  <recombinant UMI read abundance (log10)>
0

$$$$
>  <orderedResidues>
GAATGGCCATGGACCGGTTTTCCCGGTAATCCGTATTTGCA (site CAATGGCCTTG)

>  <recombinant UMI read abundance (log10)>
0

$$$$
>  <orderedResidues>
TAATTAGCATGGACCGGTTTTCCCGGTAATCCGTATTTGGG (site TAATCAGCTCC)

>  <recombinant UMI read abundance (log10)>
0.0055

$$$$
>  <orderedResidues>
TGCTTGGCATGGACCGGTTTTCCCGGTAATCCGTATTTGGT (site TGCTCGGCTAC)

>  <recombinant UMI read abundance (log10)>
0

$$$$

Given the sequence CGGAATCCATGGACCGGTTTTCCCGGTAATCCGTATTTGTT (site AGGAAACCTAA) , write its reported recombinant UMI read abundance (log10).
0

Given the sequence TCAAGTTCATGGACCGGTTTTCCCGGTAATCCGTATTTGTC (site TCAAGTTCTGA) , write its reported recombinant UMI read abundance (log10).
2

Given the sequence CGGCGGACATGGACCGGTTTTCCCGGTAATCCGTATTTGTG (site CGGCGGACTCA) , write its reported recombinant UMI read abundance (log10).
1.64

Given the sequence CCGCATTCATGGACCGGTTTTCCCGGTAATCCGTATTTGCG (site CCGCATTCTCG) , write its reported recombinant UMI read abundance (log10).
0.57

Given the sequence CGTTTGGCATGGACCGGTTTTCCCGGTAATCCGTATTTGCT (site CGTTTGCCTAG) , write its reported recombinant UMI read abundance (log10).
0

Given the sequence CACTTCTCATGGACCGGTTTTCCCGGTAATCCGTATTTGGG (site CCCTTCTCTCC) , write its reported recombinant UMI read abundance (log10).
0.00683

Given the sequence CATGCAGCATGGACCGGTTTTCCCGGTAATCCGTATTTGCT (site CAGGCAGCTAG) , write its reported recombinant UMI read abundance (log10).
0.00853

Given the sequence TTCTACACATGGACCGGTTTTCCCGGTAATCCGTATTTGCT (site ATCTACACTAG) , write its reported recombinant UMI read abundance (log10).
0.34

Given the sequence CAAGCGGCATGGACCGGTTTTCCCGGTAATCCGTATTTGCT (site CAAGCGGCTAG) , write its reported recombinant UMI read abundance (log10).
1.72

Given the sequence AGATCATCATGGACCGGTTTTCCCGGTAATCCGTATTTGTT (site CGATCATCTAG) , write its reported recombinant UMI read abundance (log10).
0

Given the sequence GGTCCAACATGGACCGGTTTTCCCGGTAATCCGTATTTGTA (site GGTCCATCTTA) , write its reported recombinant UMI read abundance (log10).
0.583

Given the sequence CGGTTGGCATGGACCGGTTTTCCCGGTAATCCGTATTTGCT (site CGATTGGCTAG) , write its reported recombinant UMI read abundance (log10).
0.3

Given the sequence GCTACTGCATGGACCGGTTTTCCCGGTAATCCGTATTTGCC (site GCTACTGCTTG) , write its reported recombinant UMI read abundance (log10).
0.255

* * *

test: recombinant barcode read abundance after kanamycin selection (control-corrected) (log10(CPM+1)); higher = more efficient recombination; sequences stand for … in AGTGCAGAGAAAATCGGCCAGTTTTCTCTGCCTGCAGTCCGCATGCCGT…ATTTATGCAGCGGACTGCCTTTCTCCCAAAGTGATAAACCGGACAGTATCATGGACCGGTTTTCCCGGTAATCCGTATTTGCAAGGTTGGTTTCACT; site = the 11-nt target
quantityName: recombinant barcode read abundance (log10)
// keep it numeric: no unit symbol after the value

Worked examples, 4 sequences total:
>  <orderedResidues>
GAGCCCAGATGGGTTCTAACCTGTTGCCTAG [GAGCCCACTAG_LTGcore_GA_RTGcore_CT] (site GAGCCCACTAG) (LTG core: GA, RTG core: CT)

>  <number>
0.163

$$$$
>  <orderedResidues>
AAACAGTACTGGGTTCTAACCTGTTGCCTGT [AAACAGTCTAG_LTGcore_AC_RTGcore_AC] (site AAACAGTCTAG) (LTG core: AC, RTG core: AC)

>  <number>
0.114

$$$$
>  <orderedResidues>
AGGAGGTCTTGGGTTCTAACCTGTTGCCTGA [AGGAGGTCTAG_LTGcore_CT_RTGcore_TC] (site AGGAGGTCTAG) (LTG core: CT, RTG core: TC)

>  <number>
0.643

$$$$
>  <orderedResidues>
AGGCGGTCTTGGGTTCTAACCTGTTGCTTAG [AGGCGGTCTAA_LTGcore_CT_RTGcore_CT] (site AGGCGGTCTAA) (LTG core: CT, RTG core: CT)

>  <number>
2.29

$$$$

Next, consider the following sequence.
Given the sequence AAACATGCTTGGGTTCTAACCTGTTGCCTAA [AAACATGCTAG_LTGcore_CT_RTGcore_TT] (site AAACATGCTAG) (LTG core: CT, RTG core: TT) , write its reported recombinant barcode read abundance (log10).
0.344
